# Experimental parameters: 353.15 K; 100 kPa; Liquid; Vibrating tube method
Parameter: mass density (kg/m3)

CCCCO; 761.12
CCCCCO; 768.33
CCCO; 752.44
CCCCCCCCCCC; 695.72
CCCCCCO; 773.86

* * *

# Experimental parameters: 318.15 K; 100 kPa; Liquid; Falling or rolling sphere viscometry
Parameter: viscosity (mPa·s)

Examples from the recorded data:
CCCCO; 1.589
CCCCCO; 2.045

I = CCCCCCCCCCC
II = CCCCCCO
III = CCCO
*Q* Put these in order: smallest viscosity first, largest last. Field: ranking. Enter the labels in the order requested.
*A* I, III, II

* * *

# Experimental parameters: 348.15 K; 100 kPa; Liquid; Falling or rolling sphere viscometry
Parameter: viscosity (mPa·s)

Examples from the recorded data:
CCCO [propan-1-ol]; 0.685
CCCCCO [pentan-1-ol]; 1.038

a = CCCCCCO [hexan-1-ol]
b = CCCCO [butan-1-ol]
c = CCCCCCCCCCC [undecane]
*Q* Put these in order: smallest viscosity first, largest last. Field: ranking. Enter the labels in the order requested.
*A* c, b, a
(c: 0.549 mPa·s, b: 0.842 mPa·s, a: 1.255 mPa·s)

* * *

# Experimental parameters: 338.15 K; 100 kPa; Liquid; Vibrating tube method
Parameter: mass density (kg/m3)

CCCCCCO [hexan-1-ol]; 785.72
CCCCCO [pentan-1-ol]; 780.62
CCCCCCCCCCC [undecane]; 706.95
CCCO [propan-1-ol]; 766.15
CCCCO [butan-1-ol]; 774.03

* * *

# Experimental parameters: 328.15 K; 100 kPa; Liquid; Vibrating tube method
Parameter: mass density (kg/m3)

CCCCCCCCCCC [undecane]; 714.39
CCCCCCO [hexan-1-ol]; 793.37
CCCO [propan-1-ol]; 774.86
CCCCCO [pentan-1-ol]; 788.5
CCCCO [butan-1-ol]; 782.27

* * *

# Experimental parameters: 288.15 K; 100 kPa; Liquid; Falling or rolling sphere viscometry
Parameter: viscosity (mPa·s)

CCCCCCCCCCC [undecane]; 1.249
CCCCCO [pentan-1-ol]; 4.655
CCCO [propan-1-ol]; 2.489

a = CCCCCCO [hexan-1-ol]
b = CCCCO [butan-1-ol]
*Q* Param pair: a , b . Output: the one whose viscosity is numerically greater. API: response body contains the label of the selected item.
*A* a

* * *

# Experimental parameters: 333.15 K; 100 kPa; Liquid; Vibrating tube method
Parameter: mass density (kg/m3)

CCCO; 770.54
CCCCCCO; 789.57
CCCCCCCCCCC; 710.68
CCCCCO; 784.59
CCCCO; 778.18

* * *

# Experimental parameters: 323.15 K; 100 kPa; Liquid; Falling or rolling sphere viscometry
Parameter: viscosity (mPa·s)

Examples from the recorded data:
CCCCCO; 1.81
CCCCO; 1.427

1 = CCCCCCCCCCC
2 = CCCCCCO
3 = CCCO
*Q* Rank entries according to their viscosity, from the largest number down. Field: ranking. Enter the labels in the order requested.
*A* 2, 3, 1

* * *

# Experimental parameters: 283.15 K; 100 kPa; Liquid; Falling or rolling sphere viscometry
Parameter: viscosity (mPa·s)

Examples from the recorded data:
CCCCCO; 5.431
CCCCO; 4.046

a = CCCO
b = CCCCCCCCCCC
c = CCCCCCO
*Q* Put these in order: smallest viscosity first, largest last. Field: ranking. Enter the labels in the order requested.
*A* b, a, c
(b: 1.371 mPa·s, a: 2.834 mPa·s, c: 7.487 mPa·s)

Value source: the NIST ThermoML archive (doi:10.1021/acs.jced.6b00121)
